Assignment: determine reported inhibition for the given compounds.
# study-target: Protein RecA (Mycobacterium tuberculosis (strain ATCC 25618 / H37Rv)) (UniProt P9WHJ3)
# Sequence (P9WHJ3 whole entry, looked up): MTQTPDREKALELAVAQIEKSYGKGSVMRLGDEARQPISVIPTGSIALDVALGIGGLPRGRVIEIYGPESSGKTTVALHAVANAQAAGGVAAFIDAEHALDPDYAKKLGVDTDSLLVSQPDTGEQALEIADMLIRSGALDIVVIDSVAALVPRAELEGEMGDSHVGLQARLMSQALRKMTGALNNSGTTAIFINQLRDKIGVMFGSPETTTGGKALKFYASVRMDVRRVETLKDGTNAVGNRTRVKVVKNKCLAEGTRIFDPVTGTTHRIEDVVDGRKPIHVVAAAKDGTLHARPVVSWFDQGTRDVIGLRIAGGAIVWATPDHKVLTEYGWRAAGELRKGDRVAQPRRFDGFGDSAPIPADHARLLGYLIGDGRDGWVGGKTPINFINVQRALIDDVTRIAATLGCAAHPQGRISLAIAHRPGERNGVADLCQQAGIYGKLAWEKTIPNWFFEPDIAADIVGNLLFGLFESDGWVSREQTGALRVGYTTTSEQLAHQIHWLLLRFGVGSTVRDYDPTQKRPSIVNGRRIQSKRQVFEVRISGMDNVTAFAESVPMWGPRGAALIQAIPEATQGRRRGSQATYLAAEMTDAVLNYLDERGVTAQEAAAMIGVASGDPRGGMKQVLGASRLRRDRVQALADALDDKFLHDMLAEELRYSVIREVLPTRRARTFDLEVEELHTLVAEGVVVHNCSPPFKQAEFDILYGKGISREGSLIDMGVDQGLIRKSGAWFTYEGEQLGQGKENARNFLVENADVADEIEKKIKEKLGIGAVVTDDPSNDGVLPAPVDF
# test-summary: Mtb RecA intein splicing inhibitors, primary screen, biochemical, fluorescence, HTS (AID 2221);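 also: 0% = vehicle wells and 100% = reference inhibitor control wells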
# reported-conditions: cell-free RecA intein splicing, stronger effect = higher value, concentration not given here
The whole screen tested about 290,000 compounds, of which about 2,200 (0.76%) were called active. The full list was thinned out, with actives kept by preference.
Field format: number, assumed %, no unit text.

What the record says about `C[C@H](NC(=O)C1CCN(S(=O)(=O)c2ccccc2)CC1)C(=O)NCc1ccccc1` : inhibition is 1.64

The compound listed as `CCN1CCC2(CC1)N=C(c1ccc(F)cc1)C(=S)N2C(=O)c1ccc(C)cc1` has a reported inhibition of 1.27

Query `Cc1c(-c2ccccc2)nc(N)c(C#N)c1-c1cccs1` yields inhibition of -1.05

Please fill in: inhibition reported for `O=C(Nc1ccccc1Cl)Nc1cccc2cccnc12` = 6.8

The reported value for CCc1cc(CNC(=O)CC2C(=O)NCCN2Cc2ccccc2C(F)(F)F)on1 (configuration not stated) in terms of inhibition is -0.415

compound `CCOC(=O)N1CCC(NC(=O)CCc2ccccc2)CC1` , inhibition observed: -0.782

// inhibition value for COC(=O)C1=C(Nc2ccc(C)cc2)C=C(C)C(C(=O)OC)C1c1ccc(F)cc1 (configuration not stated) : -4.47

Record O=S(N1CCCCCC1)C12CC3CC(CC(C3)C1)C2 (configuration not stated) , field inhibition: -0.132

Sample O=C1c2oc3ccc(Br)cc3c(=O)c2C(c2cccc(F)c2)N1CCO (configuration not stated) ; inhibition observed: 1.67

Lookup result for `Cn1c(=O)c2c(-c3cccc(Br)c3)c(C#N)c(N)nc2n(C)c1=O` ; measured inhibition: -11.9

Value of inhibition reported for the compound `O=C1N[C@H](Cc2ccccc2)C(=O)N[C@H]1Cc1cn(S(=O)(=O)c2ccccc2)c2ccccc12` is 2.29

Notebook: `O=C(Nc1ccccc1)c1nnsc1S(=O)(=O)c1ccc(Cl)cc1` , inhibition read as 70

The compound listed as `COc1ccc(/C=C2/C(=O)N(c3ccccc3)N=C2C)c(OC)c1` shows inhibition equal to 70

The compound listed as `Cc1ccc(C(=O)N/N=C/c2cccc3ccccc23)cn1` shows inhibition equal to 0.625

Looking up `COc1ccc(/C=C2/C(=O)OCc3cc(OC)c(OC)cc32)c(OC)c1` , I found its inhibition recorded as -0.742

Record `Cc1cc(Cl)nc(NC(=O)Nc2cccc(Cl)c2)n1` , field inhibition: -0.873

// field: inhibition; key: S=c1[nH]nc(-c2ccc(Cl)cc2)n1CC1CCCO1 (configuration not stated) ; value = -1.85

Short answer for `COc1ccc(N2CCN(C(C)=C3C(=O)c4ccccc4C3=O)CC2)cc1` : inhibition was -1.11

Memo: `O=C(Cc1cc(=O)[nH][nH]1)N/N=C/c1ccccc1[N+](=O)[O-]` , reported inhibition: 86.9

The measured inhibition associated with CCN(CCNC(=O)C1=C(C)C(=O)OC12CCC(C)CC2)c1ccccc1 (configuration not stated) reads -9.04

Given item `Cc1ccc(N(Cc2cc(=O)[nH]c3ccccc23)C(=O)CCl)cc1` , the value recorded as its inhibition is 69.5

// inhibition value for `O=C(c1nnc(-c2ccc(Cl)cc2)o1)C1CCCC1` : -10.3

----------
# study-target: Protein RecA (Mycobacterium tuberculosis (strain ATCC 25618 / H37Rv)) (UniProt P9WHJ3)
# test-summary: Mtb RecA intein splicing inhibitors, primary screen, biochemical, fluorescence, HTS (AID 2221);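 also: 0% = vehicle wells and 100% = reference inhibitor control wells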
# reported-conditions: cell-free RecA intein splicing, concentration not given here
In all, about 290,000 compounds went through this assay and about 2,200 (0.76%) were called active. Cut-off read from the data, not from the text of the source: active = inhibition above about 30%; inconclusive = no clear call, values can overlap the other calls; inactive = below that. The entries come from a sample that favours actives as a whole.
Form entry, call: pick from 1 (yes) for active, 0 (no) for inactive

So what was the verdict on `CCCCCCCCCCOC(=O)Cn1c(COc2cccc(OC)c2)[n+](C)c2ccccc21` in this test?
1 (yes)

Please share the test call associated with Cc1ccc(NC(=O)c2cnc(SCC(=O)NCC3CCCO3)n(C)c2=O)cc1 (stereo not drawn) .
1 (yes)

Look up the recorded call for `Cc1ccc(OCCCn2c(=O)oc3ccccc32)cc1` in this test.
0 (no)
